Assay Comment: Circular dichroism (CD) helicity
Assay type: physicochemical
Positions of bridges follow the written chain, without caps; N, C: chain ends. Non-standard residues stand in square brackets, D forms with d. Residues, ends and D or L forms follow the SMILES beside them. R8 = C=CCCCCCC[C@@](C)(N)C(=O)O; S5 = C=CCCC[C@](C)(N)C(=O)O
Please respond with YES when measured CD % Helicity is strictly beneath 30%, and with NO in all other cases.

Molecule | Group
CC(=O)N[C@H](C(=O)N[C@@H](CO)C(=O)NC(C)(Cc1ccccc1)C(=O)N[C@@H]1CCCCCCC=CCCC[C@@H](C(N)=O)NC(=O)C(C)(CC(C)C)NC(=O)[C@H](CC(C)C)NC(=O)[C@H](C)NC(=O)[C@H](Cc2c[nH]c3ccccc23)NC(=O)[C@H](Cc2ccc(O)cc2)NC(=O)[C@H](CCC(=O)O)NC1=O)[C@@H](C)O (some centres unmarked) [MP-792] | YES
CC(=O)N[C@H](C(=O)N[C@@H](CO)C(=O)NC(C)(Cc1ccccc1)C(=O)N[C@]1(C)CCCCCCC=CCCC[C@@](C)(C(N)=O)NC(=O)[C@H](CC(C)C)NC(=O)[C@H](CC(C)C)NC(=O)[C@H](C)NC(=O)[C@H](Cc2c[nH]c3ccccc23)NC(=O)[C@H](Cc2ccc(O)cc2)NC(=O)[C@H](CCC(=O)O)NC1=O)[C@@H](C)O (some centres unmarked) [MP-159] | NO
CC(=O)N[C@@H](CCCCN=[N+]=[N-])C(=O)NCCC(=O)N[C@@H](CC(C)C)C(=O)N[C@H](C(=O)N[C@@H](Cc1ccccc1)C(=O)N[C@]1(C)CCCCCCn2cc(nn2)CCC[C@@](C)(C(=O)N[C@@H](CO)C(=O)N[C@@H](C)C(=O)N[C@@H](C)C(N)=O)NC(=O)[C@H](CC2CCC2)NC(=O)[C@H](CCC(N)=O)NC(=O)[C@H](C)NC(=O)[C@H](Cc2c[nH]c3ccccc23)NC(=O)[C@H](Cc2ccc(O)cc2)NC(=O)[C@H](CCC(=O)O)NC1=O)[C@@H](C)O [MP-707] | NO
CC(=O)N[C@@H](CC(C)C)C(=O)N[C@H](C(=O)N[C@@H](Cc1ccccc1)C(=O)N[C@]1(C)CCCCCCC=CCCC[C@@](C)(C(=O)N[C@@H](CO)C(=O)N[C@@H](C)C(=O)N[C@@H](C)C(N)=O)NC(=O)[C@@H](CC2CCC2)NC(=O)[C@H](CC(C)C)NC(=O)[C@H](CCC(N)=O)NC(=O)[C@H](Cc2c[nH]c3ccccc23)NC(=O)[C@H](Cc2ccc(O)cc2)NC(=O)[C@H](CCC(=O)O)NC1=O)[C@@H](C)O [MP-009] | YES
CC(=O)N[C@@H](CC(C)C)C(=O)N[C@H](C(=O)N[C@@H](Cc1ccccc1)C(=O)N[C@]1(C)CCCCCCC=CCCC[C@@](C)(C(=O)N[C@@H](C)C(=O)N[C@@H](C)C(=O)N[C@@H](C)C(=O)N[C@@H](C)C(=O)N[C@@H](C)C(=O)N[C@@H](C)C(N)=O)NC(=O)[C@H](CC(C)C)NC(=O)[C@H](CCC(N)=O)NC(=O)[C@H](C)NC(=O)[C@H](Cc2c[nH]c3ccccc23)NC(=O)[C@H](Cc2ccc(O)cc2)NC(=O)[C@H](CCC(=O)O)NC1=O)[C@@H](C)O [MP-688] (Ac-LTF[R8]EYWAQL[S5]AAAAAA-NH2; staple 4-11) | NO
